System: Klebsiella pneumoniae Y-60
test protocol: Heart Infusion Agar Dilution Method, minimum inhibitory concentration
Type: cell-based
details: Y60; Klebsiella pneumoniae Y-60; Heart Infusion Agar Dilution Method, pH 7.2; read-out: Minimum Inhibitory Concentration
measurement kind: MIC (µg/mL)

compound: N[C@@H](C(=O)N[C@@H]1C(=O)N2C(C(=O)O)=C(Cl)CC[C@H]12)c1ccc(O)cc1 [e]
recorded result: 12.5
//
compound: CO/N=C(\C(=O)N[C@@H]1C(=O)N2C(C(=O)O)=C(Cl)CC[C@H]12)c1ccco1 (relative stereo) [c]
recorded result: 50
//
compound: CCN1CCN(C(=O)N[C@@H](C(=O)N[C@@H]2C(=O)N3C(C(=O)O)=C(Cl)CC[C@H]23)c2ccccc2)C(=O)C1=O [b]
recorded result: 12.5
//
compound: CO/N=C(\C(=O)N[C@@H]1C(=O)N2C(C(=O)O)=C(Cl)CC[C@H]12)c1csc(N)n1 (relative stereo) [d]
recorded result: 0.78
